System: 616215-338-R-J1-PDC complex spheroid viability;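 also: spheroids exposed to compounds for one week before readout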
Experiment: Anticancer human tumor 616215-338-R-J1-PDC patient-derived colon adenocarcinoma cell line growth inhibition [POLQ]
Conditions: second compound 1 µM; first compound 0.1 µM; active compounds read low
Could you please mark condition met for values of viability, T/C below 90% and condition not met for values at or above it?

Examples from the recorded data:
COc1cccc2c1C(=O)c1c(O)c3c(c(O)c1C2=O)CC(O)(C(=O)CO)CC3OC1CC(N)C(O)C(C)O1 (centres undefined) + Nc1ccc(C#CCN(C(=O)Cc2ncc(C(F)(F)F)cc2C(F)(F)F)c2ccc(F)cc2)nn1 : condition met
CC(C)n1c(=O)n(C)c2cnc3cc(F)c(-c4ccc(OCCCN5CCCCC5)nc4)cc3c21 + COC1C(OC(N)=O)C(O)C(Oc2ccc3c(O)c(NC(=O)c4ccc(O)c(CC=C(C)C)c4)c(=O)oc3c2C)OC1(C)C : condition not met
C#Cc1c(F)ccc2cc(O)cc(-c3ncc4c(N5CC6CCC(C5)N6)nc(OCC56CCCN5CC(F)C6)nc4c3F)c12 (centres undefined) + Cc1cccc(N(C)C(=O)C2C(O)CCN2c2nc(C)cc(C(F)(F)F)c2C#N)c1 : condition not met
COc1cccc2c1C(=O)c1c(O)c3c(c(O)c1C2=O)CC(O)(C(=O)CO)CC3OC1CC(N)C(O)C(C)O1 (centres undefined) + Cc1cccc(N(C)C(=O)C2C(O)CCN2c2nc(C)cc(C(F)(F)F)c2C#N)c1 : condition met
COc1cccc2c1C(=O)c1c(O)c3c(c(O)c1C2=O)CC(O)(C(=O)CO)CC3OC1CC(N)C(O)C(C)O1 (centres undefined) + COC1C(OC(N)=O)C(O)C(Oc2ccc3c(O)c(NC(=O)c4ccc(O)c(CC=C(C)C)c4)c(=O)oc3c2C)OC1(C)C : condition not met
O=C(Nc1ccc(O)c(NS(=O)(=O)c2ccc(F)cc2)c1)c1ccc(-c2ccccc2)cc1 + Nc1ccc(C#CCN(C(=O)Cc2ncc(C(F)(F)F)cc2C(F)(F)F)c2ccc(F)cc2)nn1 : condition not met
CCCS(=O)(=O)Nc1ccc(F)c(C(=O)c2c[nH]c3ncc(-c4ccc(Cl)cc4)cc23)c1F + Cc1cccc(N(C)C(=O)C2C(O)CCN2c2nc(C)cc(C(F)(F)F)c2C#N)c1 : condition not met
CNCc1ccc(-c2[nH]c3cc(F)cc4c3c2CCNC4=O)cc1 + COC1C(OC(N)=O)C(O)C(Oc2ccc3c(O)c(NC(=O)c4ccc(O)c(CC=C(C)C)c4)c(=O)oc3c2C)OC1(C)C : condition not met
Cn1ncnc1[C@H]1c2n[nH]c(=O)c3cc(F)cc(c23)N[C@@H]1c1ccc(F)cc1 + COC1C(OC(N)=O)C(O)C(Oc2ccc3c(O)c(NC(=O)c4ccc(O)c(CC=C(C)C)c4)c(=O)oc3c2C)OC1(C)C : condition not met
COc1ccc([C@@H](O)c2cc(-c3ncnc4cc(N5CCOCC5)ccc34)c(F)cc2Cl)nn1 + Nc1ccc(C#CCN(C(=O)Cc2ncc(C(F)(F)F)cc2C(F)(F)F)c2ccc(F)cc2)nn1 : condition not met

// query Please check: viability, T/C for COc1cccc(OCCCN)c1-c1cc(Nc2cnc(C#N)cn2)n[nH]1 + Nc1ccc(C#CCN(C(=O)Cc2ncc(C(F)(F)F)cc2C(F)(F)F)c2ccc(F)cc2)nn1 , strictly under 90% or not?
// result condition met

// query Given CCc1c2c(nc3ccc(O)cc13)-c1cc3c(c(=O)n1C2)COC(=O)[C@]3(O)CC + Cc1cccc(N(C)C(=O)C2C(O)CCN2c2nc(C)cc(C(F)(F)F)c2C#N)c1 , is recorded viability, T/C strictly lower than 90%?
// result condition met

// query Does the reported viability, T/C of the following compound sit strictly below 90%? CC[C@@]1(O)C(=O)OCc2c1cc1n(c2=O)Cc2cc3c(CN(C)C)c(O)ccc3nc2-1 + COC1C(OC(N)=O)C(O)C(Oc2ccc3c(O)c(NC(=O)c4ccc(O)c(CC=C(C)C)c4)c(=O)oc3c2C)OC1(C)C
// result condition met

// query State whether 90% exceeds viability, T/C recorded for CCc1c2c(nc3ccc(O)cc13)-c1cc3c(c(=O)n1C2)COC(=O)[C@]3(O)CC + COC1C(OC(N)=O)C(O)C(Oc2ccc3c(O)c(NC(=O)c4ccc(O)c(CC=C(C)C)c4)c(=O)oc3c2C)OC1(C)C .
// result condition met

// query Please let me know if O=c1[nH]cc(F)c(=O)[nH]1 + COC1C(OC(N)=O)C(O)C(Oc2ccc3c(O)c(NC(=O)c4ccc(O)c(CC=C(C)C)c4)c(=O)oc3c2C)OC1(C)C shows viability, T/C below 90%.
// result condition not met

// query Please determine if CC1COCCN1c1cc(C2(O)CC3CCC(C2)O3)c2cnn(-c3ccn[nH]3)c2n1 (centres undefined) + Nc1ccc(C#CCN(C(=O)Cc2ncc(C(F)(F)F)cc2C(F)(F)F)c2ccc(F)cc2)nn1 is below 90% in terms of viability, T/C.
// result condition met
